Reference source: FireProtDB (doi:10.1006/jmbi.1998.1906)

Catalogue of unfolding enthalpy (van 't Hoff) readings, one per entry.
B1: Lysozyme C, P61626 (parent)
chain: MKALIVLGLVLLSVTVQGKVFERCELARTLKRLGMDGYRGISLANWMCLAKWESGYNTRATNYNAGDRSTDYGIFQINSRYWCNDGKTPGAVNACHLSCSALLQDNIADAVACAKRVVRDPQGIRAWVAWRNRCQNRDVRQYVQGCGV

variants of: B1; details: Homo sapiens; pH 3.1; Thermal; DSC; glycine 0.05 M; reversible: yes; structure 1LZ1; whole UniProt chain shown

{"biopolymerSequence": "MKALIVLGLVLLSVTVQGKVFERCELARTLKRLGMDGYRGISLANWMCLAKWESGYNTRATNYNAGDRSTDYGIFQINSRYWCNDGKTPGAVNACHLSCSALLQDNVADAVACAKRVVRDPQGIRAWVAWRNRCQNRDVRQYVQGCGV [I107V]", "unfolding enthalpy (van 't Hoff), kcal/mol": 88.3}
{"biopolymerSequence": "MKALIVLGLVLLSVTVQGKVFERCELARTLKRLGMDGYRGISLANWMCLAKWESGYNTRATNYNAGDRSTDYGVFQINSRYWCNDGKTPGAVNACHLSCSALLQDNIADAVACAKRVVRDPQGIRAWVAWRNRCQNRDVRQYVQGCGV [I74V]", "unfolding enthalpy (van 't Hoff), kcal/mol": 78.2}
{"biopolymerSequence": "MKALIVLGLVLLSVTVQGKVFERCELARTLKRLGMDGYRGISLANWMCLAKWESGYNTRATNYNAGDRSTDYGIFQINSRYWCNDGKTPGAVNACHLSCSALLQDNIADAVACAKRVVRDPQGVRAWVAWRNRCQNRDVRQYVQGCGV [I124V]", "unfolding enthalpy (van 't Hoff), kcal/mol": 78}
{"biopolymerSequence": "MKALIVLGLVLLSVTVQGKAFERCELARTLKRLGMDGYRGISLANWMCLAKWESGYNTRATNYNAGDRSTDYGIFQINSRYWCNDGKTPGAVNACHLSCSALLQDNIADAVACAKRVVRDPQGIRAWVAWRNRCQNRDVRQYVQGCGV [V20A]", "unfolding enthalpy (van 't Hoff), kcal/mol": 70.6}
{"biopolymerSequence": "MKALIVLGLVLLSVTVQGKVFERCELARTLKRLGMDGYRGISLANWMCLAKWESGYNTRATNYNAGDRSTDYGIFQINSRYWCNDGKTPGAVNACHLSCSALLQDNIADAVACAKRAVRDPQGIRAWVAWRNRCQNRDVRQYVQGCGV [V117A]", "unfolding enthalpy (van 't Hoff), kcal/mol": 73.7}
{"biopolymerSequence": "MKALIVLGLVLLSVTVQGKVFERCELARTLKRLGMDGYRGISLANWMCLAKWESGYNTRATNYNAGDRSTDYGIFQVNSRYWCNDGKTPGAVNACHLSCSALLQDNIADAVACAKRVVRDPQGIRAWVAWRNRCQNRDVRQYVQGCGV [I77V]", "unfolding enthalpy (van 't Hoff), kcal/mol": 78.7}
